- TEST NAME: Apparent pKa of LNP formulations (TNS fluorescence assay)
- CONDITION SUMMARY: LNP cationic lipid/DSPC/cholesterol/DMG-PEG 50/10/38.5/1.5 mol %, Table 3
Exercise: for every item that follows, state its recorded Apparant Pka.

Lookup: Fill blank: measured Apparant Pka of the compound CCCCCCCCC(CCCCCC)CNC(=O)CCCCCN(CCCCCC(=O)NCC(CCCCCC)CCCCCCCC)CCN(CCO)C1CCCCC1 (centres unmarked) is ____.
Found: 6.264

Lookup: Returns the measured Apparant Pka for the input compound. Input: CCCCCCCCC(CCCCCCCC)COC(=O)CCCCCN(CCCCCC(=O)OCC(CCCCCCCC)CCCCCCCC)CCN(CCO)C1CCC1
Found: 6.143

Lookup: Param item = CCCCCCCCC(CCCCCCCC)COC(=O)CCCCCN(CCCCCC(=O)OCC(CCCCCCCC)CCCCCCCC)CCN(CCCCC)C1CCC(O)CC1 (centres unmarked) ; retrieve measured Apparant Pka.
Found: 6.2

Lookup: Item under review: CCCCCCCCC(CCCCCC)CC(=O)OCCCCCN(CCCCCOC(=O)CC(CCCCCC)CCCCCCCC)CCN(CCO)C1CCC1 (centres unmarked) . Reported Apparant Pka?
Found: 6.252

Lookup: Quick check: Apparant Pka of CCCCCCCCC(CCCCCC)COC(=O)CCCCCN(CCCCCC(=O)OCC(CCCCCC)CCCCCCCC)CCN(CCO)C1CCC(O)CC1 (centres unmarked) ?
Found: 7.652

Lookup: Return reported Apparant Pka; argument: CCCCC/C=C\CCCC(=O)C(CC/C=C\CCCCC)C(CCC/C=C\CCCCC)OC(=O)CCCCCN(CCO)CCCCCC(=O)OCCC/C=C/CCCCC (centres unmarked)
Found: 6.187

Lookup: Form field: reported Apparant Pka of CCCCCCCCC(CCCCCC)COC(=O)NCCCCN(CCCCNC(=O)OCC(CCCCCC)CCCCCCCC)CCN(CCO)C1CCC1 (centres unmarked)
Found: 6.797

Lookup: Quick one: Apparant Pka for CCCCCCCCC(CCCCCCCC)COC(=O)CCCCCN(CCCCCC(=O)OCC(CCCCCCCC)CCCCCCCC)CCN(CCO)C1CCCOC1 (centres unmarked) ?
Found: 6.544

Lookup: Which Apparant Pka is listed for CCCCCCCCC(CCCCCC)CNC(=O)CCCCCN(CCCCCC(=O)NCC(CCCCCC)CCCCCCCC)CCN(CCO)C1CCC1 (centres unmarked) ?
Found: 6.523

Lookup: Please report the recorded Apparant Pka for CCCCCCC(CCCCCC)CCCCCC(=O)OCCCCCN(CCCCCOC(=O)CCCCCC(CCCCCC)CCCCCC)CCN(CCO)C1CCC1 .
Found: 6.32

Lookup: Find the recorded Apparant Pka belonging to CCCCCCCCC(CCCCCC)CC(=O)NCCCCCN(CCCCCNC(=O)CC(CCCCCC)CCCCCCCC)CCN(CCO)C1CCC1 (centres unmarked) and report it.
Found: 6.698

Lookup: Request the reported Apparant Pka associated with CCCCCCCCC(CCCCCC)CNC(=O)CCCCCN(CCCCCC(=O)NCC(CCCCCC)CCCCCCCC)CCN(CCO)C1CCCC1 (centres unmarked)
Found: 6.668

Lookup: Value lookup for Apparant Pka; key = CCCCCCCCC(CCCCCC)COC(=O)CCCCCN(CCCCCC(=O)OCC(CCCCCC)CCCCCCCC)CCN(CCO)C1CCC1 (centres unmarked)
Found: 5.945

Lookup: Consider the compound shown here: CCCCCCCCCCCOC(=O)CCCCCN(CCCCCC(=O)NCC(CCCCCCCC)CCCCCCCC)CCN(CCO)C1CCCCCC1 What is its recorded Apparant Pka?
Found: 6.810

Lookup: Which Apparant Pka is listed for CCCCCCCCC(CCCCCCCC)CC(=O)NCCCCCN(CCCCCOC(=O)CC(CCCCCCCC)CCCCCCCC)CCN(CCO)C1CCCCCC1 ?
Found: 6.634

Lookup: Which value of Apparant Pka has been reported for CCCCCCC(CCCCCC)COC(=O)CCCCCN(CCCCCC(=O)OCC(CCCCCC)CCCCCC)CCN(CCO)C1CCC1 [Compound 77] in the records?
Found: 6.352

Lookup: Query: Apparant Pka; subject: CCCCCCC(CCCCCC)CC(=O)NCCCCCN(CCCCCOC(=O)CC(CCCCCC)CCCCCC)CCN(CCO)C1CC1
Found: 6.621

Lookup: Value lookup for Apparant Pka; key = CCCCCCCCC(CCCCCC)COC(=O)CCCCCN(CCCCCC(=O)OCC(CCCCCC)CCCCCCCC)CCN(CCCCO)C1CCC1 (centres unmarked)
Found: 6.477

Lookup: Reported Apparant Pka for CCCCCCCCC(CCCCCCCC)CNC(=O)CCCCCN(CCCCCC(=O)OCC(CCCCCCCC)CCCCCCCC)CCN(CCO)C1CCCCC1 : what is it?
Found: 6.688

Lookup: Item under review: CCCCCCCCC(CCCCCC)CC(=O)NCCCCCN(CCCCCNC(=O)CC(CCCCCC)CCCCCCCC)CCN(CCO)C1CCCC1 (centres unmarked) . Reported Apparant Pka?
Found: 6.695

Lookup: Please give the measured Apparant Pka for this compound: CCCCCCCCC(CCCCCC)COC(=O)CCCCCC(CCCCCC(=O)OCC(CCCCCC)CCCCCCCC)CCCN(C)CCO (centres unmarked)
Found: 6.327

Lookup: Which measured Apparant Pka value corresponds to CCCCCCCCC(CCCCCC)COC(=O)CCCCCC(CCCCCC(=O)OCC(CCCCCC)CCCCCCCC)CN(CC)CCO (centres unmarked) ?
Found: 4.403

Lookup: Which value of Apparant Pka has been reported for CCCCCCCCC(CCCCCCCC)CC(=O)NCCCCCN(CCCCCNC(=O)CC(CCCCCCCC)CCCCCCCC)CCN(CCO)C1CCCCCC1 in the records?
Found: 6.794

Lookup: Requested field: Apparant Pka. Item: CCCCCCCCC(CCCCCC)COC(=O)CCCCCN(CCCCCC(=O)OCC(CCCCCC)CCCCCCCC)CCN(CCO)C1CCSCC1 (centres unmarked)
Found: 6.257

Lookup: Please report the recorded Apparant Pka for CCCCCCCCCCCOC(=O)CCCCCN(CCCCCC(=O)NCC(CCCCCCCC)CCCCCCCC)CCN(CCO)C1CC1 .
Found: 6.948

Lookup: Which Apparant Pka value belongs to CCCCCCCCC(CCCCCCCC)COC(=O)CCCCCN(CCCCCC(=O)OCC(CCCCCCCC)CCCCCCCC)CCN(CCC)C1CCCC1O (centres unmarked) ?
Found: 6.279

---

- TEST NAME: Lipid nanoparticle size by dynamic light scattering (Malvern Zetasizer Nano ZS)
- Assay type: physicochemical
- CONDITION SUMMARY: LNP: cationic lipid/DSPC/cholesterol/PEG-lipid 50:10:38.5:1.5, hEPO mRNA; Table 3
MEASUREMENT NAME: polydispersity
Form: value (number only, do not type unit).

Lookup: Find the recorded polydispersity belonging to CCCCCCCCC(CCCCCC)COC(=O)CCCCCN(CCCCCC(=O)OCC(CCCCCC)CCCCCCCC)CCN(CCO)C1CC(O)C1 (stereo not drawn) and report it.
Found: 0.081

Lookup: Entry CCCCCCCCC(CCCCCC)CC(=O)NCCCCCN(CCCCCOC(=O)CC(CCCCCC)CCCCCCCC)CCN(CCO)C1CCCC1 (stereo not drawn) has what polydispersity?
Found: 0.097

Lookup: For the compound shown here, CCCCCCCCC(CCCCCC)CNC(=O)CCCCCN(CCCCCC(=O)OCC(CCCCCC)CCCCCCCC)CCN(CCO)C1CCCCCC1 (stereo not drawn) , give the reported polydispersity.
Found: 0.107

Lookup: # get_value(readout='polydispersity', item= CCCCCCCCC(CCCCCC)COC(=O)NCCCCN(CCCCNC(=O)OCC(CCCCCC)CCCCCCCC)CCN(CCO)C1CCC1 (stereo not drawn) )
Found: 0.035

Lookup: Fill in the blank: the reported polydispersity of CCCCCCCCC(CCCCCC)CC(=O)NCCCCCN(CCCCCNC(=O)CC(CCCCCC)CCCCCCCC)CCN(CCO)C1CCCC1 (stereo not drawn) is ____.
Found: 0.025

Lookup: Please report the recorded polydispersity for CCCCCCCCC(CCCCCC)CC(=O)NCCCCCN(CCCCCNC(=O)CC(CCCCCC)CCCCCCCC)CCN(CCO)C1CCCCCC1 (stereo not drawn) .
Found: 0.201

---

Would you kindly list size nm for each of these compounds?
- TEST NAME: Lipid nanoparticle size by dynamic light scattering (Malvern Zetasizer Nano ZS)
- Type: physicochemical
- CONDITION SUMMARY: LNP: cationic lipid/DSPC/cholesterol/PEG-lipid 50:10:38.5:1.5, hEPO mRNA; Table 3
Expressed in nm, but write only the number.

Lookup: What value of size nm has been reported for the following compound? CCCCCCCCCCCOC(=O)CCCCCN(CCCCCC(=O)NCC(CCCCCCCC)CCCCCCCC)CCN(CCO)C1CCCC1
Found: 69.58

Lookup: Given the entry CCCCCCCCC(CCCCCCCC)CNC(=O)CCCCCN(CCCCCC(=O)NCC(CCCCCCCC)CCCCCCCC)CCN(CCO)C1CCCCC1 , report its measured size nm.
Found: 60.84

Lookup: Look up size nm: CCCCCCC(CCCCCC)CCCCCC(=O)OCCCCCN(CCCCCOC(=O)CCCCCC(CCCCCC)CCCCCC)CCN(CCO)C1CCC1
Found: 76.56

Lookup: State the recorded size nm for this entry: CCCCCCCCC(CCCCCC)CC(=O)NCCCCCN(CCCCCOC(=O)CC(CCCCCC)CCCCCCCC)CCN(CCO)C1CCC1 (stereo not shown)
Found: 80.78

Lookup: For the compound CCCCCCCCC(CCCCCC)C(C)OC(=O)CCCCCN(CCCCCC(=O)OC(C)C(CCCCCC)CCCCCCCC)CCN(CCO)C1CCC1 (stereo not shown) , what size nm is on record?
Found: 65.94

Lookup: Could you share which size nm value was measured for CCCCCCCCC(CCCCCC)COC(=O)CCCCCC(CCCCCC(=O)OCC(CCCCCC)CCCCCCCC)CN(CCO)C1CCCCCCC1 (stereo not shown) ?
Found: 57.6

Lookup: Any idea what its size nm is? The compound is CCCCCCCCC(CCCCCCCC)COC(=O)CCCCCN(CCCCCC(=O)OCC(CCCCCCCC)CCCCCCCC)CCN(CCC)C1CCCCC1O (stereo not shown)
Found: 58.74

Lookup: // lookup size nm for CCCCCCCCCCCOC(=O)CCCCCN(CCCCCC(=O)NCC(CCCCCCCC)CCCCCCCC)CCN(CCO)C1CC1
Found: 73.86

Lookup: Item CCCCCCCCC(CCCCCC)CC(=O)NCCCCCN(CCCCCOC(=O)CC(CCCCCC)CCCCCCCC)CCN(CCO)C1CCCCCC1 (stereo not shown) has what recorded size nm?
Found: 70.33

Lookup: Given the compound CCCCCCCCC(CCCCCC)CNC(=O)CCCCCN(CCCCCC(=O)OCC(CCCCCC)CCCCCCCC)CCN(CCO)C1CCCCC1 (stereo not shown) , what is its reported size nm?
Found: 77.12

Lookup: // returns reported size nm for input CCCCCCCCC(CCCCCC)COC(=O)CCCCCN(CCCCCC(=O)OCC(CCCCCC)CCCCCCCC)CCN(CC(C)O)C1CCC1 (stereo not shown)
Found: 77.76

Lookup: What value of size nm has been reported for the following compound? CCCCCCC(CCCCCC)COC(=O)CCCCCN(CCCCCC(=O)OCC(CCCCCC)CCCCCC)CCN(CCO)C1CCC1 [Compound 77]
Found: 69.81

Lookup: // size nm lookup, key: CCCCCCCCC(CCCCCC)COC(=O)CCCCCN(CCCCCC(=O)OCC(CCCCCC)CCCCCCCC)CCN(CCO)C1CCSCC1 (stereo not shown)
Found: 62.06
